# measurement-target: T1, Human CD33 (human, UniProt P20138 18-364)
# T1 construct: One molecule is used for recombinant CD33 on HEK293AD/293 cells and for endogenous human CD33 on tumor or myeloid cells; the cell is named under assay; also called huCD33; hu CD33
# experiment: Scatchard analysis, [125I]-labeled antibody competed by unlabeled antibody, Molm-13 cells (endogenous CD33)
This listing pairs binders with measured pKd.
Reminder that pKd is minus the log10 of a molar concentration.

- binder: "15G15.83 (antibody, V domains shown, Variant of 15G15) VH: QVQLVQSGAEVKKPGSSVKVSCKASGGIFSNHAISWVRQAPGQGLEWMGGIIPIFGTANYAQKFQGRVTITADESTSTAFMELSSLRSEDTAVYYCAREWADVFDIWGQGTMVTVSS VL: EIVLTQSPLSLPVTPGEPASISCRSSQSLLHSNGYNYLDWYLQKPGQSPQLLIYLGAYTVSGVPDRFSGSGSGTDFTLKISRVEAEDVGVYYCMQALQTPWTFGQGTKVEIK"
  obs-value: 9.30

What pKd value was documented for this binder, 9C3.3 (antibody, V domains shown, Variant of 9C3 with the heavy chain N-glycosylation site removed) VH: EVQLVESGGALIQPGGSLRLSCVASGFTISGNYMSWVRQAPGKGLEWVSLIYSGDSTYYADSVKGRFSISRDISKNTVYLQMNSLRVEDTAVYYCVRDGYYVSDMVVWGKGTTVTVSS VL: DIQMTQSPSSLSASVGDRVTITCRASQGIRNDLGWYQQKPGKAPKRLIYAASSLQSGVPSRFSGSGSGTEFTLTISSLQPEDFATYYCLQHNSYPWTFGQGTKLEIK ?
8.66

Each recorded value in this set is attributed to patent US20170002074A1.
